target: Protein skinhead-1 (Caenorhabditis elegans, UniProt P34707)
Sequence (P34707 whole entry): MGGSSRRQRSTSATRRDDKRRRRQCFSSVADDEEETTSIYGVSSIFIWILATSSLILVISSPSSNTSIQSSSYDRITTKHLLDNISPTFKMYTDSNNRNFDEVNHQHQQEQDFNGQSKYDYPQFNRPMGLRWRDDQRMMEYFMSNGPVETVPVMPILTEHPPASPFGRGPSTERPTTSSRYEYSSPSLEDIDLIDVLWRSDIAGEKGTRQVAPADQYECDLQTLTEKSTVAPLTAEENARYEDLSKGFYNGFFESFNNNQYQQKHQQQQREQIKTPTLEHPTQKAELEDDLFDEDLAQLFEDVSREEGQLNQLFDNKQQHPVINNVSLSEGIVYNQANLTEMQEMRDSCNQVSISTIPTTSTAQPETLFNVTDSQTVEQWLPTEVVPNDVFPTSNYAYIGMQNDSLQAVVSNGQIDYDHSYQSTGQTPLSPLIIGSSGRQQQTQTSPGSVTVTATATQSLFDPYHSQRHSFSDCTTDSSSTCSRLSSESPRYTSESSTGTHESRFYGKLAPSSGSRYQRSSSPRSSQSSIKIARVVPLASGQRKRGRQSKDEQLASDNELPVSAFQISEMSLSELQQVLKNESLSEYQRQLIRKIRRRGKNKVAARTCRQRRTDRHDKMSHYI
Type: functional
Activity calls are given as the source filed them.
Select the correct class. Options are active, inactive and nothing else.

Problem: Please share the test call associated with "c1csc(CSc2nc3ccccc3s2)c1" .
Result: active

Problem: Please share the test call associated with "Fc1ccc(-c2cn3cc(C(F)(F)F)cc(Cl)c3n2)cc1" .
Result: inactive

Problem: Please share the test call associated with "Cc1cc2cc(CNC(=O)CCC(=O)O)ccc2n1C" .
Result: inactive

Problem: Please share the test call associated with CCn1nnc2sc3c(c2c1=O)CCC(C)C3 (stereo not drawn) .
Result: inactive

Problem: Please share the test call associated with "O=C(NCc1ccco1)c1sc2cc(F)ccc2c1Cl" .
Result: inactive

Problem: Please share the test call associated with "c1ccc(Cn2nnc3c(NCCN4CCOCC4)ncnc32)cc1" .
Result: inactive

Problem: Please share the test call associated with "CC(C)Cn1c(N)c(C(=O)CSc2nnnn2C)c(=O)n(C)c1=O" .
Result: inactive

Problem: Please share the test call associated with "CCCNC(=O)COC(=O)C1CCN(S(=O)(=O)c2ccc3c(c2)OCCO3)CC1" .
Result: inactive

Problem: Please share the test call associated with Cc1ccc(C2=NN(S(C)(=O)=O)C(c3ccc4c(c3)OCO4)C2)cc1 (stereo not drawn) .
Result: inactive

Problem: Please share the test call associated with "Cc1oncc1-c1csc(-c2ccccc2Cl)n1" .
Result: inactive

Problem: Please share the test call associated with "CCOc1cc(CNCCSc2nnnn2C)cc(Br)c1OCc1ccc(F)cc1" .
Result: active

Problem: Please share the test call associated with "Cc1ccc(-c2c(C)nn3c(N4CCOCC4)cc(C)nc23)cc1" .
Result: inactive

Problem: Please share the test call associated with "CN(C)c1ccc(/C=C(\C#N)C(=O)Nc2nc3c(s2)CCN(Cc2ccccc2)C3)cc1" .
Result: inactive
